System: IL-1β
Test: Supernatant IL-1β level of activated PBMC (flow cytometry-based)
Assay type: cell-based
Settings: Homo sapiens; PBMC stimulated with IFN-γ plus LPS, 10% FBS, 48 hours; read-out: IL-1β supernatant level IC50 (estimated)
pIC50: −log10 of the molar value.
Measured Property: pIC50

Find the recorded pIC50 belonging to `CCCCCCCCCCCCCCOc1ccc(C(=O)O)o1` and report it.
< 4.05

====

System: IL-6
Assay: Supernatant IL-6 level of activated PBMC (flow cytometry-based)
Format: cell-based
Conditions: Homo sapiens; PBMC stimulated with IFN-γ plus LPS, 10% FBS, 48 hours; read-out: IL-6 supernatant level IC50 (estimated)
Procedure: As described herein, the inhibitory effect of TOFA on fatty acid synthesis is well known. However, the potential influence of TOFA on cellular production of inflammatory mediators or immune cell proliferation is unreported. To address this question, PBMC were isolated from different donors by density gradient centrifugation. […] Following a 48 hour culture period, cell supernatants were obtained for simultaneous determination of cytokine levels using a flow cytometry-based quantification method. […]
Measured Property: IC50

Find the recorded IC50 belonging to `CCCCCCCCCCCCCCOc1ccc(C(=O)O)o1` and report it.
> 90 µM
